# Test system: Pseudomonas aeruginosa PA14 dppBCDF deletion mutant
# experimentSummary: respiration area under curve with compound as sole nitrogen source, 24 h (OmniLog AUC (arbitrary units)); higher = more respiration / better utilisation as nitrogen source, active = 2000 or more; extreme values may be limits of the assay
I would appreciate it if you answered using one of these outcomes: Yes for active, No for inactive

Field: example entries. Status: answers known.
C[C@H](NC(=O)[C@@H](N)[C@@H](C)O)C(=O)O (plate: PM7); Yes
C[C@H](N)C(=O)N[C@@H](Cc1ccccc1)C(=O)O (plate: PM6); Yes
C[C@@H](O)[C@H](N)C(=O)N[C@@H](Cc1ccccc1)C(=O)O (plate: PM8); No
CC(C)C[C@H](NC(=O)[C@@H](N)CCCN=C(N)N)C(=O)O (plate: PM6); Yes

[ask] For C[C@@H](O)[C@H](N)C(=O)N[C@@H](CO)C(=O)O (plate: PM8) , which call appears in the assay record?
[reply] No

[ask] Next entry: NCC(=O)N[C@@H](Cc1ccc(O)cc1)C(=O)O (plate: PM6)
[reply] No

[ask] Next entry: N[C@@H](Cc1ccccc1)C(=O)N[C@@H](Cc1ccccc1)C(=O)O (plate: PM7)
[reply] Yes

[ask] Next entry: CC[C@H](C)[C@H](NC(=O)CN)C(=O)O (plate: PM8)
[reply] No

[ask] Next entry: CSCC[C@H](N)C(=O)N[C@@H](Cc1ccccc1)C(=O)O (plate: PM7)
[reply] No

[ask] Next entry: CC(NC(=O)C(N)CC(=O)O)C(=O)O (stereo not given) (plate: PM8)
[reply] No
